experiment: Half life in plasma; format: ADME, cell-free
ASSAY_READOUT: half-life (h)

• O=CN(O)CCCP(=O)(O)O [FOSMIDOMYCIN] = 1

====

test system: Plasmodium falciparum; assay: Antimalarial activity against Plasmodium falciparum; type: functional, organism-based
ASSAY_READOUT: EC50 (nM)

* COc1ccc([C@@H](CCN(O)C(C)=O)P(=O)(O)O)cc1 | 250
* CC(=O)N(O)CC[C@H](c1ccc(C)cc1)P(=O)(O)O | 250
* CC(=O)N(O)CC[C@H](c1ccc(Cl)cc1)P(=O)(O)O | 250
* CC(=O)N(O)CC[C@H](c1ccccc1)P(=O)(O)O | 250
* CC(=O)N(O)CC[C@H](c1ccc(Cl)c(Cl)c1)P(=O)(O)O | 250
* O=CN(O)CCCP(=O)(O)O [FOSMIDOMYCIN] | 1100

====

System: UniProtKB P45568 | Read-out: IC50
Sequence (P45568 whole entry): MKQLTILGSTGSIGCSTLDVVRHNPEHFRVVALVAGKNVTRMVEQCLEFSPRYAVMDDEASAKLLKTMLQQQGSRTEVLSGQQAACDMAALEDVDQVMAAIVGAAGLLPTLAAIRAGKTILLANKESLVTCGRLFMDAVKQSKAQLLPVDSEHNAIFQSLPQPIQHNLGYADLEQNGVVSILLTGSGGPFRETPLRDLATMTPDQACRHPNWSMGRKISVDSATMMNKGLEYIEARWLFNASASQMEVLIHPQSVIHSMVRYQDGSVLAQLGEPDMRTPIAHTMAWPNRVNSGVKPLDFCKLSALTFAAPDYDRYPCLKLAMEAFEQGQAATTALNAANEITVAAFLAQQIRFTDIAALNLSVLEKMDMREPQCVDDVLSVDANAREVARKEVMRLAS
ASSAY_READOUT: IC50 (µM)

* O=P(O)(O)Cc1ccncc1 | 7.1
* O=P(O)(O)Cc1cccnc1 | 10
* O=c1ccc(-c2ccccc2)cn1O [1-HYDROXY-5-PHENYLPYRIDIN-2(1H)-ONE] | 1.4
